Recorded recombinant barcode read abundance (log10), one value per entry.
- assaySummary: recombinant barcode read abundance after kanamycin selection (control-corrected) (log10(CPM+1)); higher = more efficient recombination; sequences stand for … in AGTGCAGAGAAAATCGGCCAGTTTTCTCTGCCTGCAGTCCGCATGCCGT…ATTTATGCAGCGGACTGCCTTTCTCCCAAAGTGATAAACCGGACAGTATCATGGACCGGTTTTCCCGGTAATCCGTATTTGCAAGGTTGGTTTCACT; site = the 11-nt target
// no unit string in output, number only

Tell me the measured recombinant barcode read abundance (log10) of GCGGGACTATGGGTTCTAACCTGTTGCCTTA [GCGGGACCTAG_LTGcore_TA_RTGcore_TA] (site GCGGGACCTAG) (LTG core: TA, RTG core: TA) , please.
0.214

Fill in: recombinant barcode read abundance (log10) of AAACATGTTTGGGTTCTAACCTGTTGCCTAA [AAACATGCTAG_LTGcore_TT_RTGcore_TT] (site AAACATGCTAG) (LTG core: TT, RTG core: TT) is ___
0.632

What measured recombinant barcode read abundance (log10) goes with AGGCGGTCTTGGGTTCTAACCTGTTGCTTTT [AGGCGGTCTAA_LTGcore_CT_RTGcore_AA] (site AGGCGGTCTAA) (LTG core: CT, RTG core: AA) ?
0.0668

Which measured recombinant barcode read abundance (log10) value corresponds to AGGCCTCCTTGGGTTCTAACCTGTTGCCTTC [AGGCCTCCTAG_LTGcore_CT_RTGcore_GA] (site AGGCCTCCTAG) (LTG core: CT, RTG core: GA) ?
0.109

// query recombinant barcode read abundance (log10) value for entry TCGCGACGGTGGGTTCTAACCTGTTGCCGAG [TCGCGACCTCG_LTGcore_GG_RTGcore_CT] (site TCGCGACCTCG) (LTG core: GG, RTG core: CT)
0.167

* * *

- assaySummary: recombinant barcode read abundance after kanamycin selection (control-corrected) (log10(CPM+1)); higher = more efficient recombination; sequences stand for … in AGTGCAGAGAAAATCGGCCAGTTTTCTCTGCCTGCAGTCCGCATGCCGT…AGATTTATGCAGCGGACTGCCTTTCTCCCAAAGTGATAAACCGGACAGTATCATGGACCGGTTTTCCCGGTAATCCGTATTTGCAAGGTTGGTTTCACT; site = the 11-nt target
outcomeMeasure: recombinant barcode read abundance (log10)

CTCTCGTCTTGGGTTCTAACCTGTTGCGT (site CTCTCGTCTAG) :: 0.291
GTGGCCACTTGGGTTCTAACCTGTTGCCT (site GTCGCCACTAG) :: 0.152
GACTTAACTTGGGTTCTAACCTGTTGCTT (site CCTAAGTCTTG) :: 0.0154
ACGAGCGCTTGGGTTCTAACCTGTTGCCT (site ACGAACGCTAG) :: 0.132
GATCCGTCTTGGGTTCTAACCTGTTGCGG (site GGTCCGGCTCC) :: 0.551
CATCGAGCTTGGGTTCTAACCTGTTGCCG (site CATCGAGCTCG) :: 0.283
GCGTACCCTTGGGTTCTAACCTGTTGCCT (site GGGTACCCTAG) :: 0.0245
GTGATCCCTTGGGTTCTAACCTGTTGCAG (site GTGAACCCTCT) :: 0.184
CGGACGCCTTGGGTTCTAACCTGTTGCCT (site CGGACGACTAG) :: 0.352
AGAGCTCCTTGGGTTCTAACCTGTTGCGG (site AGTGCTCCTCC) :: 0.196

# recombinant barcode read abundance (log10) lookup, item ACATGGACTTGGGTTCTAACCTGTTGCAT (site ACATGAACTAT)
0.753

Record request: recombinant barcode read abundance (log10) value, item GATCGATCTTGGGTTCTAACCTGTTGCGT (site GATCGATCTAA)
0.197

Value lookup for recombinant barcode read abundance (log10); key = TCGGACACTTGGGTTCTAACCTGTTGCCA (site TCGGACACTTG)
1.89

Look at this sequence and give its reported recombinant barcode read abundance (log10). GTAGAGTCTTGGGTTCTAACCTGTTGCCT (site GTAGAGTCTAG)
2.84

So what does the record say about recombinant barcode read abundance (log10) for GCCTGTTCTTGGGTTCTAACCTGTTGCCT (site GACTGTTCTAG) ?
0.238

Name the reported recombinant barcode read abundance (log10) value associated with the sequence TCGGAGGCTTGGGTTCTAACCTGTTGCTG (site TCAGAGGCTCA)
0.774

Reported recombinant barcode read abundance (log10), sequence CGGAGAGCTTGGGTTCTAACCTGTTGCCT (site CCGAGAGCTAG) : ____
0.433

Which recombinant barcode read abundance (log10) value is on record for TAGAACTCTTGGGTTCTAACCTGTTGCCT (site TAGAACTCTTG) ?
0.119

Name the reported recombinant barcode read abundance (log10) value associated with the sequence ACTGATACTTGGGTTCTAACCTGTTGCCT (site ACTGATGCTAG)
0.313

Return reported recombinant barcode read abundance (log10); argument: TAGGCGCCTTGGGTTCTAACCTGTTGCAT (site TAGGCGCCTAC)
0.723

Reported recombinant barcode read abundance (log10) for CGGAGAGCTTGGGTTCTAACCTGTTGCCT (site CAGAGAGCTAG) : what is it?
0.402
